I'd be grateful if you could share measured log10 of Cmax for these entries.
Experiment: Cmax in Sprague-Dawley rat at 5 mg/kg, po
Format: ADME, organism-based
Design: dose 5 mg/kg, route oral
Conditions: in vivo
# values: log10(Cmax), units nM

Solved cases (2 shown):
CC1(n2nnc3cnc4[nH]ccc4c32)CCN(S(C)(=O)=O)CC1; 2.85
N#CCC(=O)N1CCC[C@@H](n2nnc3cnc4[nH]ccc4c32)C1; 2.60

Please state log10 of Cmax for every compound in the list that follows.
1. N#CCCN[C@H]1CC[C@H](n2nnc3cnc4[nH]ccc4c32)CC1
2. N#CCCN1CCC(n2nnc3cnc4[nH]ccc4c32)CC1
3. CS(=O)(=O)N1CCC(n2nnc3cnc4[nH]ccc4c32)CC1

A.
[2.95, 3.69, 3.66]
